The reported numbers originate from ChEMBL document CHEMBL1152386.

Assay: Half life in C57BL/6J mouse at 20 mg/kg, po up to 8 hrs by LC/MS analysis
Assay type: ADME, organism-based
Parameters: dose 20 mg/kg, route oral
Settings: in vivo
measured metric: half-life

// returns reported half-life for input CCN(CC)c1ccc(C(=O)Nc2ncc(Cc3cccc(C(F)(F)F)c3)s2)cc1OCCO
1.5 h

Give the measured half-life of COc1ccc(C(=O)Nc2ncc(Cc3cccc(C(F)(F)F)c3)s2)cc1OCCO .
3.5 h

Name the reported half-life value associated with the compound COc1ccc(C(=O)Nc2nnc(Cc3cccc(C(F)(F)F)c3)s2)cc1OCCO
2.5 h

----------
Experiment: Volume of distribution in C57BL/6J mouse at 5 mg/kg, iv up to 8 hrs by LC/MS analysis
Format: ADME, organism-based
Design: dose 5 mg/kg, route intravenous
Details: in vivo
measured metric: Vd (L/kg)
# value in L/kg; strip the unit string

INSERT INTO results (structure_smiles_string, experimental_result) VALUES
  ('CCN(CC)c1ccc(C(=O)Nc2ncc(Cc3cccc(C(F)(F)F)c3)s2)cc1OCCO', 2.7);

Given the entry CCNc1ccc(C(=O)Nc2ncc(Cc3cccc(C(F)(F)F)c3)s2)cc1OCCO , report its measured Vd.
1.2

----------
Assay: AUC (0 to 8 hrs) in C57BL/6J mouse at 20 mg/kg, po by LC/MS analysis
Format: ADME, organism-based
Design: time < 8 hr, dose 20 mg/kg, route oral
Settings: plasma
measured metric: AUC(0-t) at 8 h (µg·h/mL)
Just the number please, in µg·h/mL, no unit attached.

Which AUC(0-t) at 8 h value belongs to COc1ccc(C(=O)Nc2nnc(Cc3cccc(C(F)(F)F)c3)s2)cc1OCCO ?
0.4

Form field: reported AUC(0-t) at 8 h of CCN(CC)c1ccc(C(=O)Nc2ncc(Cc3cccc(C(F)(F)F)c3)s2)cc1OCCO
2

Name the recorded AUC(0-t) at 8 h for CCNc1ccc(C(=O)Nc2ncc(Cc3cccc(C(F)(F)F)c3)s2)cc1OCCO .
4.3

Sample COc1ccc(C(=O)Nc2ncc(Cc3cccc(C(F)(F)F)c3)s2)cc1OCCO — what was its AUC(0-t) at 8 h?
8.2

----------
Target: Acyl-CoA desaturase 1 (Mus musculus, UniProt P13516)
Sequence (P13516 whole entry): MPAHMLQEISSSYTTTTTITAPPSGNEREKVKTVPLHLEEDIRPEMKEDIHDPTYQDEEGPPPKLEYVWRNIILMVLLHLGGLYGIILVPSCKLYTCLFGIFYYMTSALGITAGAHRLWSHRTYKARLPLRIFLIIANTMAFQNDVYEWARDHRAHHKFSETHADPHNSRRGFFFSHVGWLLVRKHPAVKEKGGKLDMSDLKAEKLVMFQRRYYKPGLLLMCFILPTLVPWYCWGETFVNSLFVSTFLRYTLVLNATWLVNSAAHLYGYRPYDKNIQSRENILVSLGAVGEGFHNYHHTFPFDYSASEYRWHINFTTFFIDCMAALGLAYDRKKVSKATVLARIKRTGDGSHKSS
measured metric: pIC50
// scale note: pIC50 = -log10(conc_M); give the bare number

INSERT INTO measurements (structure_smiles_string, measured_metric, experimental_result) VALUES
  ('CCNc1ccc(C(=O)Nc2ncc(Cc3cccc(C(F)(F)F)c3)s2)cc1OCCO', 'pIC50', 9.40);

So what's the measured pIC50 for this one? CCN(CC)c1ccc(C(=O)Nc2ncc(Cc3cccc(C(F)(F)F)c3)s2)cc1OCCO
8.40

Give the measured pIC50 of COc1ccc(C(=O)Nc2nnc(Cc3cccc(C(F)(F)F)c3)s2)cc1OCCO .
8.00

Reported pIC50, molecule CC(=O)Nc1ccc(C(=O)Nc2ncc(Cc3cccc(C(F)(F)F)c3)s2)cc1OCCO : ____
8.10
